Listing of recorded composite z-score by entry.
system: Torsin-1A (Homo sapiens)
assay.notes: torsin A mutant lysate binding on microarrays – cell lysate, small-molecule microarray, COS7 lysate, 635/667 nm fluorescence, primary screen (AID 1150);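 note: score pools 667 nm emission and signal to noise measuring lysate protein binding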
experimental.setup: COS7 hTOR1A mutant lysate, 635 nm fluorescence, higher = more signal
observed.property: composite z-score

[
  {
    "compound": "C=CCC(OC(C)=O)[C@@H]1[C@@H](N(Cc2ccc(-c3ccccc3)cc2)C(=O)Cc2ccc(OC)cc2)c2cc(OCCCO)ccc2N1C(=O)c1ccc(-c2ccccc2)cc1 (stereo partly specified)",
    "system": "Torsin-1A (Homo sapiens)",
    "observed.property": "composite z-score",
    "value.reported": 0.0644
  },
  {
    "compound": "[N-]=[N+]=Nc1ccccc1C[C@]1(C(=O)NCCN2CCOCC2)N=C(c2ccc(OCCCO)cc2)O[C@H]1c1ccccc1N=[N+]=[N-]",
    "system": "Torsin-1A (Homo sapiens)",
    "observed.property": "composite z-score",
    "value.reported": 0.954
  },
  {
    "compound": "COC(=O)[C@@]1(Cc2ccccc2)[C@H]2c3cc(C(=O)N(C)C)n(Cc4ccc(O)c(OC)c4)c3C[C@H]2CN1C(=O)c1ccccc1",
    "system": "Torsin-1A (Homo sapiens)",
    "observed.property": "composite z-score",
    "value.reported": 1.06
  },
  {
    "compound": "CN1C(=O)C2C=CC(C(O)C3CCCCC3)N(N(c3ccccc3)c3ccccc3)C2C1=O (stereo unspecified)",
    "system": "Torsin-1A (Homo sapiens)",
    "observed.property": "composite z-score",
    "value.reported": 0.0415
  },
  {
    "compound": "COCCCNC(=O)[C@]1(CCS(=O)(=O)c2ccccc2)N=C(c2ccc(OCCCO)cc2)O[C@@H]1c1ccccc1",
    "system": "Torsin-1A (Homo sapiens)",
    "observed.property": "composite z-score",
    "value.reported": 1.33
  },
  {
    "compound": "Cc1ccc(C(C)CC(O)C2C=CC3C(=O)N(Cc4ccccc4)C(=O)C3N2n2cnnc2)o1 (stereo unspecified)",
    "system": "Torsin-1A (Homo sapiens)",
    "observed.property": "composite z-score",
    "value.reported": 0.663
  },
  {
    "compound": "C=CC[C@]1(C(=O)N2CCOCC2)N=C(c2ccc(OCCCO)cc2)O[C@H]1c1ccccc1CN=[N+]=[N-]",
    "system": "Torsin-1A (Homo sapiens)",
    "observed.property": "composite z-score",
    "value.reported": 1.1
  },
  {
    "compound": "NCCCCCCNC(=O)[C@H]1C[C@H]2C(=O)N3CCC[C@H]3C(=O)N2[C@H]1c1ccc(O)cc1",
    "system": "Torsin-1A (Homo sapiens)",
    "observed.property": "composite z-score",
    "value.reported": 0.553
  },
  {
    "compound": "NC(=O)NCC#Cc1ccc2c(c1)[C@]1(C(=O)N2)[C@H](c2ccc(OCCO)cc2)N2[C@H](c3ccccc3)[C@H](c3ccccc3)OC(=O)[C@H]2[C@@H]1C(=O)N1CCCCCCC1",
    "system": "Torsin-1A (Homo sapiens)",
    "observed.property": "composite z-score",
    "value.reported": 1.02
  },
  {
    "compound": "C=C(COC)/C(=C/C[C@@H](OC(=O)c1ccncc1)c1cccc(OCCO)c1)c1cc(C(=O)OC)ccc1OC",
    "system": "Torsin-1A (Homo sapiens)",
    "observed.property": "composite z-score",
    "value.reported": 1.49
  },
  {
    "compound": "COC(=O)[C@@]1(Cc2ccc(OC)cc2)[C@H]2c3cc(C(=O)N(C)C)n(Cc4cc(F)c(F)c(F)c4)c3C[C@H]2CN1C(=O)c1ccccc1",
    "system": "Torsin-1A (Homo sapiens)",
    "observed.property": "composite z-score",
    "value.reported": 0.712
  },
  {
    "compound": "COc1cc(NN2C(C(O)c3ccc(I)cc3)C=CC3C(=O)N(C)C(=O)C32)cc(OC)c1OC (stereo unspecified)",
    "system": "Torsin-1A (Homo sapiens)",
    "observed.property": "composite z-score",
    "value.reported": 1.42
  },
  {
    "compound": "C=C(CCCC)/C(=C/C[C@H](OC(=O)c1ccncc1)c1ccc(CO)o1)c1cc(C(=O)OC)ccc1OC",
    "system": "Torsin-1A (Homo sapiens)",
    "observed.property": "composite z-score",
    "value.reported": 0.646
  },
  {
    "compound": "CC1CC/C=C\\[C@H]2OC34C=CCN(c5ccc(Cl)cc5)C(=O)[C@H]3N(C(CO)C(C)C)C(=O)[C@]4(C)C2C(=O)O1 (stereo partly specified)",
    "system": "Torsin-1A (Homo sapiens)",
    "observed.property": "composite z-score",
    "value.reported": 1.45
  },
  {
    "compound": "CCCNC(=O)[C@@H]1c2ccccc2C(=O)N(CC23CC4CC(CC(C4)C2)C3)[C@H]1c1ccc(CO)cc1",
    "system": "Torsin-1A (Homo sapiens)",
    "observed.property": "composite z-score",
    "value.reported": -0.0207
  },
  {
    "compound": "C=C(/C(=C/C[C@@H](OC(=O)c1ccncc1)c1cccc(OCCO)c1)c1cc(C(=O)OC)ccc1OC)C(C)C",
    "system": "Torsin-1A (Homo sapiens)",
    "observed.property": "composite z-score",
    "value.reported": 0.868
  },
  {
    "compound": "COc1ccc([Si](C)(C)[C@@H]2[C@@H](CC(=O)N(CCO)Cc3ccccc3)O[C@]3(C(=O)N(Cc4ccc(N5CCOC5=O)cc4)c4ccccc43)[C@H]2C)cc1",
    "system": "Torsin-1A (Homo sapiens)",
    "observed.property": "composite z-score",
    "value.reported": 0.0783
  },
  {
    "compound": "COc1cc2c(cc1OC)CN(C(=O)[C@@H]1[C@H]3C(=O)O[C@H](c4ccccc4)[C@H](c4ccccc4)N3[C@H](c3ccc(OCCO)cc3)[C@@]13C(=O)Nc1ccc(C#CCCO)cc13)CC2",
    "system": "Torsin-1A (Homo sapiens)",
    "observed.property": "composite z-score",
    "value.reported": 0.755
  },
  {
    "compound": "O=C1N(CCS(=O)(=O)c2ccccc2)Cc2ccccc2C[C@@]12COC(c1ccc(OCCCO)cc1)=N2",
    "system": "Torsin-1A (Homo sapiens)",
    "observed.property": "composite z-score",
    "value.reported": 0.945
  },
  {
    "compound": "CC(=O)NCCCC[C@@H]1NC(=O)[C@H]2C[C@@H](C(=O)NCCCCCN)[C@@H](c3cccc(OCCO)c3)N2C1=O",
    "system": "Torsin-1A (Homo sapiens)",
    "observed.property": "composite z-score",
    "value.reported": 0.0709
  },
  {
    "compound": "O=C1O[C@H](c2ccccc2)[C@H](c2ccccc2)N2[C@H]1[C@@H](C(=O)N1CCN(c3ncccn3)CC1)[C@]1(C(=O)Nc3ccc(C#CCCO)cc31)[C@H]2c1ccc(OCCO)cc1",
    "system": "Torsin-1A (Homo sapiens)",
    "observed.property": "composite z-score",
    "value.reported": 0.938
  }
]
